# target-under-test: human GABAB1 and GABAB2 receptor subunits (Homo sapiens, UniProt O75899+Q9UBS5)
# Construct: expressed in transfected cells; host or cells: CHO cells
# Sequence (Q9UBS5 15-961 limits assumed): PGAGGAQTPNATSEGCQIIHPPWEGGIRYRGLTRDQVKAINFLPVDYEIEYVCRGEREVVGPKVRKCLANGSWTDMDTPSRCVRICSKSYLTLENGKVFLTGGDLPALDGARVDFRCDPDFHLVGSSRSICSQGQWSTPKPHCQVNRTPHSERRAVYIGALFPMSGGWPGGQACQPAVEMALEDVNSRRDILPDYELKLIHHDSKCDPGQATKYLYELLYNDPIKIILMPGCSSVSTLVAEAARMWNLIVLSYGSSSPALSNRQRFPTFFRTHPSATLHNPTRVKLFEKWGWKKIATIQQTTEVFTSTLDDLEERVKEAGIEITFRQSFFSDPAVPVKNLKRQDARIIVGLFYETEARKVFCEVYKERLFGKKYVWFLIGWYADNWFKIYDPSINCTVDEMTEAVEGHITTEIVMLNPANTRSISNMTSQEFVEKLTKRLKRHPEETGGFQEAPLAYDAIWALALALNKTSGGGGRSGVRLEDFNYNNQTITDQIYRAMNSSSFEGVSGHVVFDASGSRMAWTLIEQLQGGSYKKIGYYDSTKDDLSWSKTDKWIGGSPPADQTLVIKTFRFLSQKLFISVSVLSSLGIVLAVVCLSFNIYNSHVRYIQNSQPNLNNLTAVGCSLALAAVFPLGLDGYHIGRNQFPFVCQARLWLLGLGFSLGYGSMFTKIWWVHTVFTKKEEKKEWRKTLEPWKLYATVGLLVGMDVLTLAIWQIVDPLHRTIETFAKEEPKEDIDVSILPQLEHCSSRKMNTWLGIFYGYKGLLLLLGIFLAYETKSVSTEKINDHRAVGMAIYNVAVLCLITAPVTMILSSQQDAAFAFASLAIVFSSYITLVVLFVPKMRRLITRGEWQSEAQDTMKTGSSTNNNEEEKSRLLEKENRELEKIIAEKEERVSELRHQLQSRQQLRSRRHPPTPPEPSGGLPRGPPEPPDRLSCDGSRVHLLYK
# Sequence (O75899 42-941): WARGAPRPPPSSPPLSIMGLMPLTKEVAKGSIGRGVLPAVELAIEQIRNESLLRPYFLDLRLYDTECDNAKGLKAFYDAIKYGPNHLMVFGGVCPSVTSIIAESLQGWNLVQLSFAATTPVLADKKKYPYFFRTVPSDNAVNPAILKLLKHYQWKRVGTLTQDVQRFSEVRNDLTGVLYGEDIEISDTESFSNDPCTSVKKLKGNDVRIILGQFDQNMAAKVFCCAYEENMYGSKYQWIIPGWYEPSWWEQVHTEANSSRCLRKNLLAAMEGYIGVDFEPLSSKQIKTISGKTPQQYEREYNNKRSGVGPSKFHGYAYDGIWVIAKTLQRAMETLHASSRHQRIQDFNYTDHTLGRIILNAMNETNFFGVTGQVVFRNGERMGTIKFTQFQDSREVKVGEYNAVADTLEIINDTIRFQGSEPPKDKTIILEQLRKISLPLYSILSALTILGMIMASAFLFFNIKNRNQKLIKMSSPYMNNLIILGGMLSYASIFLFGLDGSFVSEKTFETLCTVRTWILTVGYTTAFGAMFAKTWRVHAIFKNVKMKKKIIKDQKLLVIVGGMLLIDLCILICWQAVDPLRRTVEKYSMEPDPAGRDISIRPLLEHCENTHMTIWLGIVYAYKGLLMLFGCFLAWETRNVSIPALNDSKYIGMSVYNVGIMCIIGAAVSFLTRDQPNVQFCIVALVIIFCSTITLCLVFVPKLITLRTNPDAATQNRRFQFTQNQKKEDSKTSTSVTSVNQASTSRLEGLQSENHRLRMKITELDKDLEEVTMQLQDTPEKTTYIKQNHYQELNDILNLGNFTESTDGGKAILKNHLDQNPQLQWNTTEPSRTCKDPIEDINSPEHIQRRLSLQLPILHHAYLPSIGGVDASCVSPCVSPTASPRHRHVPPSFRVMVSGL
# experiment-description: Agonism and positive allosteric modulator pharmacology in vitro, two-addition FLIPR calcium assay
# Format: cell-based
# setup-conditions: CHO cells co-expressing Galpha16; positive allosteric modulator efficacy at 10 μM (with EC10.5 GABA) / GABA efficacy at 30 μM
just bin them by IA (GABAB positive allosteric modulation): 1: < 0.4; 2: ≥ 0.4 and < 0.7; 3: ≥ 0.7

-- ask Using the reported IA (GABAB positive allosteric modulation), which band applies to Cn1c(=O)n(C2CCCc3ccccc32)c(=O)c2ccc(C(F)(F)F)cc21 (centres unmarked) ?
-- reply 2

-- ask For CC(C)(O)Cn1c(=O)n(Cc2ccc(Br)cc2)c(=O)c2ccc(F)cc21 , which IA (GABAB positive allosteric modulation) bin applies?
-- reply 3

-- ask Which band does COc1c(F)cc2c(=O)n(Cc3ccc(Br)cc3)c(=O)n3c2c1OC(C)(C)C3 fall in?
-- reply 3

-- ask Please report the category associated with C[C@H](c1ccc(Cl)cc1)n1c(=O)c2ccc(F)cc2n(C)c1=O , nothing else.
-- reply 1

-- ask Which class does Cn1c(=O)n(Cc2ccc(Br)cc2)c(=O)c2ccc(Cl)cc21 fall in?
-- reply 2

-- ask # bin label for CC(C)(C)C(=O)Cn1c(=O)n(Cc2ccc(Br)cc2)c(=O)c2ccc(F)cc21
-- reply 2

-- ask Could you tell me which band CC1(C)Cn2c(=O)n(Cc3ccc(Br)cc3)c(=O)c3ccc(Cl)c(c32)O1 belongs to?
-- reply 2

-- ask # bin lookup: classify CC(C)n1c(=O)n(Cc2ccc(Br)cc2)c(=O)c2ccc(F)cc21 by its IA (GABAB positive allosteric modulation)
-- reply 1

-- ask Form: Item = CC(C)(O)Cn1c(=O)n(Cc2ccc(Cl)c(Oc3ccccc3)c2)c(=O)c2ccc(F)cc21 ; Class = ?
-- reply 2

-- ask Pick a category. Item: CC(C)(O)Cn1c(=O)n(Cc2ccc(Br)cc2)c(=O)c2cc(F)c(F)c(F)c21
-- reply 3

-- ask Dear colleague, I would appreciate it if you could identify the bin for CC(C)(O)Cn1c(=O)n(Cc2ccc(Cl)c(Cl)c2)c(=O)c2ccc(C(F)(F)F)cc21 and reply at your convenience.
-- reply 2

-- ask Textbook exercise: identify the category of the compound given here, CC(C)(O)Cn1c(=O)n(Cc2ccc(Cl)cc2)c(=O)c2cc(Cl)cc(F)c21 , according to its measured value.
-- reply 3

-- ask Class for CCn1c(=O)n(Cc2ccc(Br)cc2)c(=O)c2ccc(F)cc21 ?
-- reply 2

-- ask Into which category would you place Cn1c(=O)n(Cc2ccc([N+](=O)[O-])cc2)c(=O)c2ccc(F)cc21 ?
-- reply 1
